Let's look at some molecules and their measured viability, T/C.
# System: NCI-H211 complex spheroid viability
# assay: Anticancer human tumor NCI-H211 cell line growth inhibition [LSD1]
# particulars: second compound 1 µM; first compound 0.3 µM; stronger effect = lower value
Please state the figure in %; there is no need to write the unit.

Use these answered entries as a reference point.
Nc1ncn(C2CC(O)C(CO)S2)c(=O)n1 (configuration not stated) + NC1CC1c1ccc(-c2cccc(O)c2)cc1    6.59
CCc1c2c(nc3ccc(O)cc13)-c1cc3c(c(=O)n1C2)COC(=O)[C@]3(O)CC + NC1CC1c1ccc(-c2cccc(O)c2)cc1    0.16
Nc1ccccc1NC(=O)c1ccc(CNC(=O)OCc2cccnc2)cc1 + NC1CCC(NC2CC2c2ccccc2)CC1    0.99
O=C(C=Cc1cccc(S(=O)(=O)Nc2ccccc2)c1)NO + NC1CCC(NC2CC2c2ccccc2)CC1    1.92
NS(=O)(=O)OCC1CC(n2ccc3c(NC4CCc5ccccc54)ncnc32)CC1O (configuration not stated) + NC1CC1c1ccc(-c2cccc(O)c2)cc1    1.64

Task: Identify measured viability, T/C obtained with NCI-H211 complex spheroid viability for COc1cc(C2c3cc4c(cc3C(OC3OC5COC(C)OC5C(O)C3O)C3COC(=O)C23)OCO4)cc(OC)c1O (configuration not stated) + NC1CC1c1ccc(-c2cccc(O)c2)cc1 .
Output: 4.33

Task: Identify measured viability, T/C obtained with NCI-H211 complex spheroid viability for O=C(C=Cc1cccc(S(=O)(=O)Nc2ccccc2)c1)NO + NC1CC1c1ccc(-c2cccc(O)c2)cc1 .
Output: 4.38

----------
# Tested on: NCI-H211 complex spheroid viability
# assay: Anticancer human tumor NCI-H211 cell line growth inhibition [LSD1]
# particulars: second compound 3.16 µM; first compound 0.0316 µM; stronger effect = lower value
readoutType: viability, T/C

Use these answered entries as a reference point.
CC1COCCN1c1cc(C2(S(C)(=N)=O)CC2)nc(-c2ccnc3[nH]ccc23)n1 (stereo unspecified) + NC1CC1c1ccc(-c2cccc(O)c2)cc1    69.6%
COc1cc(Nc2ncc3c(n2)-c2ccc(Cl)cc2C(c2c(F)cccc2OC)=NC3)ccc1C(=O)O + NC1CCC(NC2CC2c2ccccc2)CC1    2.4%
CC(C)CC(NC(=O)C(Cc1ccccc1)NC(=O)c1cnccn1)B(O)O (stereo unspecified) + NC1CC1c1ccc(-c2cccc(O)c2)cc1    0.09%
CC(C)CC(NC(=O)CNC(=O)c1cc(Cl)ccc1Cl)B1OC(=O)CC(CC(=O)O)(C(=O)O)O1 (stereo unspecified) + NC1CCC(NC2CC2c2ccccc2)CC1    18.1%
CC(C)c1c(-c2ccccc2)nc2c(C#N)c[nH]n2c1=O + NC1CCC(NC2CC2c2ccccc2)CC1    46.6%

Task: Determine from records and report viability, T/C for CC(C)c1c(-c2ccccc2)nc2c(C#N)c[nH]n2c1=O + NC1CC1c1ccc(-c2cccc(O)c2)cc1
Output: 83.6%

----------
# Test system: NCI-H211 complex spheroid viability
# assay: Anticancer human tumor NCI-H211 cell line growth inhibition [LSD1]; active means viability on the fitted dose curve at most 10% of control; inactive means the rest
# particulars: second compound 10 µM; first compound 0.1 µM
Select the correct class. Options are 1 for active, -1 for inactive and nothing else.

Worked examples follow.
COc1ccc([C@@H](O)c2cc(-c3ncnc4cc(N5CCOCC5)ccc34)c(F)cc2Cl)nn1 + NC1CCC(NC2CC2c2ccccc2)CC1    -1
CC(C)CC(NC(=O)CNC(=O)c1cc(Cl)ccc1Cl)B1OC(=O)CC(CC(=O)O)(C(=O)O)O1 (configuration not stated) + NC1CCC(NC2CC2c2ccccc2)CC1    1
CC1COCCN1c1cc(-c2ccnn2C)c2ccnc(-c3ccn[nH]3)c2n1 (configuration not stated) + NC1CC1c1ccc(-c2cccc(O)c2)cc1    1
CC1(C)CCC(CN2CCN(c3ccc(C(=O)NS(=O)(=O)c4ccc(NCC5CCOCC5)c([N+](=O)[O-])c4)c(Oc4cnc5[nH]ccc5c4)c3)CC2)=C(c2ccc(Cl)cc2)C1 + NC1CC1c1ccc(-c2cccc(O)c2)cc1    -1
O=C(c1cc(Cc2n[nH]c(=O)c3ccccc23)ccc1F)N1CCN(C(=O)C2CC2)CC1 + NC1CC1c1ccc(-c2cccc(O)c2)cc1    -1
O=C(C=Cn1cnc(-c2cc(C(F)(F)F)cc(C(F)(F)F)c2)n1)NNc1cnccn1 + NC1CC1c1ccc(-c2cccc(O)c2)cc1    1

Please find the next compound below.
Task: State the result this test recorded for CC1COCCN1c1cc(C2(S(C)(=N)=O)CC2)nc(-c2ccnc3[nH]ccc23)n1 (configuration not stated) + NC1CC1c1ccc(-c2cccc(O)c2)cc1 .
Output: -1

----------
# System: NCI-H211 complex spheroid viability
# assay: Anticancer human tumor NCI-H211 cell line growth inhibition [LSD1]; active = viability on the fitted dose curve at most 10% of control; inactive = the rest;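 note: luminescent viability read after seven days of drug exposure; 100% = DMSO vehicle control viability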
# particulars: second compound 0.316 µM; first compound 1 µM
Select the correct class. Options are active, inactive and nothing else.

Worked examples follow.
COc1cc(Nc2ncc3c(n2)-c2ccc(Cl)cc2C(c2c(F)cccc2OC)=NC3)ccc1C(=O)O + NC1CCC(NC2CC2c2ccccc2)CC1    active
CC(C)c1c(-c2ccccc2)nc2c(C#N)c[nH]n2c1=O + NC1CC1c1ccc(-c2cccc(O)c2)cc1    inactive
O=C(c1cc(Cc2n[nH]c(=O)c3ccccc23)ccc1F)N1CCN(C(=O)C2CC2)CC1 + NC1CCC(NC2CC2c2ccccc2)CC1    active
O=C(C=Cn1cnc(-c2cc(C(F)(F)F)cc(C(F)(F)F)c2)n1)NNc1cnccn1 + NC1CCC(NC2CC2c2ccccc2)CC1    active

Task: State the result this test recorded for COc1ccc([C@@H](O)c2cc(-c3ncnc4cc(N5CCOCC5)ccc34)c(F)cc2Cl)nn1 + NC1CC1c1ccc(-c2cccc(O)c2)cc1 .
Output: inactive

----------
# Test system: NCI-H211 complex spheroid viability
# assay: Anticancer human tumor NCI-H211 cell line growth inhibition [LSD1]; active means viability on the fitted dose curve at most 10% of control; inactive means the rest;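 note: luminescent viability read after seven days of drug exposure; 100% = DMSO vehicle control viability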
# particulars: second compound 1 µM; first compound 1 µM
Select the correct class. Options are 1.0 for active, 0.0 for inactive and nothing else.

Worked examples follow.
COc1ccc([C@@H](O)c2cc(-c3ncnc4cc(N5CCOCC5)ccc34)c(F)cc2Cl)nn1 + NC1CCC(NC2CC2c2ccccc2)CC1    0.0
CC1COCCN1c1cc(C2(S(C)(=N)=O)CC2)nc(-c2ccnc3[nH]ccc23)n1 (centres undefined) + NC1CCC(NC2CC2c2ccccc2)CC1    0.0
O=C(C=Cn1cnc(-c2cc(C(F)(F)F)cc(C(F)(F)F)c2)n1)NNc1cnccn1 + NC1CC1c1ccc(-c2cccc(O)c2)cc1    1.0

Please find the next compound below.
Task: State the result this test recorded for O=C(c1cc(Cc2n[nH]c(=O)c3ccccc23)ccc1F)N1CCN(C(=O)C2CC2)CC1 + NC1CCC(NC2CC2c2ccccc2)CC1 .
Output: 1.0

----------
# Tested on: NCI-H211 complex spheroid viability
# assay: Anticancer human tumor NCI-H211 cell line growth inhibition [LSD1];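 note: luminescent viability read after seven days of drug exposure; 100% = DMSO vehicle control viability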
# particulars: second compound 1 µM; first compound 0.003 µM; stronger effect = lower value
# Description: Multicellular complex tumor spheroid response to LSD1 Inhibitor Iadademstat in combination with a variety of drugs and investigational agents in selected tumor cell lines The current study was undertaken to assess response to LSD1 inhibitors in combination with standard-of-care drugs and investigational agents in solid tumor complex spheroid models as well as in the K-562 leukemia. […] Compounds. […] If the clinical Cmax for an agent had not been determined, the highest concentration tested was 10 microM. […]
readoutType: viability, T/C (%)
Please state the figure in %; there is no need to write the unit.

Use these answered entries as a reference point.
CCc1c2c(nc3ccc(O)cc13)-c1cc3c(c(=O)n1C2)COC(=O)[C@]3(O)CC + NC1CC1c1ccc(-c2cccc(O)c2)cc1    1.68
CCc1c2c(nc3ccc(O)cc13)-c1cc3c(c(=O)n1C2)COC(=O)[C@]3(O)CC + NC1CCC(NC2CC2c2ccccc2)CC1    1.08
Nc1ncn(C2CC(O)C(CO)S2)c(=O)n1 (stereo unspecified) + NC1CCC(NC2CC2c2ccccc2)CC1    26.6
Nc1ccn(C2OC(CO)C(O)C2(F)F)c(=O)n1 (stereo unspecified) + NC1CCC(NC2CC2c2ccccc2)CC1    1.98

Task: Determine from records and report viability, T/C for Nc1ccn(C2OC(CO)C(O)C2(F)F)c(=O)n1 (stereo unspecified) + NC1CC1c1ccc(-c2cccc(O)c2)cc1
Output: 4.15

Task: Determine from records and report viability, T/C for Nc1ncn(C2CC(O)C(CO)S2)c(=O)n1 (stereo unspecified) + NC1CC1c1ccc(-c2cccc(O)c2)cc1
Output: 17.2

----------
# Test system: NCI-H211 complex spheroid viability
# assay: Anticancer human tumor NCI-H211 cell line growth inhibition [LSD1];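 note: luminescent viability read after seven days of drug exposure; 100% = DMSO vehicle control viability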
# particulars: second compound 3.16 µM; first compound 0.000316 µM; stronger effect = lower value
# Source text: Multicellular complex tumor spheroid response to LSD1 Inhibitor Iadademstat in combination with a variety of drugs and investigational agents in selected tumor cell lines The current study was undertaken to assess response to LSD1 inhibitors in combination with standard-of-care drugs and investigational agents in solid tumor complex spheroid models as well as in the K-562 leukemia. […] Compounds. […] If the clinical Cmax for an agent had not been determined, the highest concentration tested was 10 microM. […]
readoutType: viability, T/C (%)
Please state the figure in %; there is no need to write the unit.

Cn1ncnc1C1c2n[nH]c(=O)c3cc(F)cc(c23)NC1c1ccc(F)cc1 (centres undefined) + NC1CCC(NC2CC2c2ccccc2)CC1    54.7
CC(C)CC(NC(=O)CNC(=O)c1cc(Cl)ccc1Cl)B1OC(=O)CC(CC(=O)O)(C(=O)O)O1 (centres undefined) + NC1CCC(NC2CC2c2ccccc2)CC1    59.8
CC(C)CC(NC(=O)C(Cc1ccccc1)NC(=O)c1cnccn1)B(O)O (centres undefined) + NC1CC1c1ccc(-c2cccc(O)c2)cc1    81.2

Now consider the entry below.
Task: Determine from records and report viability, T/C for CC[C@@]1(O)C(=O)OCc2c1cc1n(c2=O)Cc2cc3c(CN(C)C)c(O)ccc3nc2-1 + NC1CC1c1ccc(-c2cccc(O)c2)cc1
Output: 38.7
